Origin of values: patent US20230183352A1

Molecular target: T1, Claudin 18.2 (CLDN18.2), expressed on CHOS-CLDN 18.2 / HEK293-CLDN 18.2 / HCC827-CLDN 18.2 cells (human, UniProt P56856-2 1-261)
T1 construct: whole, on cells; The species is not repeated for the CHOS-CLDN 18.2 cells; also called claudin-18A2
Experiment: FACS, CHOS-CLDN18.2 cells, 5 µg/ml

| binder | FACS reading |
| --- | --- |
| QP201202 (antibody, human IgG1, V domains shown, Chimeric; also called 44C6) VH: EVQLQQSGPELVKPGASVKMSCKASGYTFTNYFVHWVKQKPGQGLEWIGYINPYNDDTKYNEKFKGKATLTSDKSSSTAYMDLSSLTSEDSAVYYCLSLRFFAYWGQGTLVTVSA VL: DIVMTQSPSSLTVTAGEKVTMSCKSSQSLLNSGNQKNYLTWYQQKPGQAPKLLIYWASTRESGVPDRFIGSGSGTDFTLTISHVQAEDLAVYFCQNDYSYPLTFGAGTNLELK | 81100 |
| QP14561454 (antibody, human IgG1, kappa, V domains shown, Humanized from QP201202) VH: QVQLVQSGAEVKKPGASVKVSCKASGYTFTNYFVHWVRQAPGQGLEWMGYINPYNDDTKYNEKFKGRVTMTRDTSTSTVYMELSSLRSEDTAVYYCLSLRFFAYWGQGTLVTVSS VL: DIVMTQSPDSLAVSLGERATISCKSSQSLLNSGNQKNYLTWYQQKPGQAPKLLIYWASTRESGVPDRFSGSGSGTDFTLTISSVQAEDVAVYFCQNDYSYPLTFGGGTKVEIKR | 114000 |
| QP14581453 (antibody, human IgG1, kappa, V domains shown, Humanized from QP201202) VH: QVQLVQSGAEVKKPGASVKVSCKASGYTFTNYFVHWVKQAPGQGLEWIGYINPYNDDTKYNEKFKGKATLTRDTSTSTVYMELSSLRSEDTAVYYCLSLRFFAYWGQGTLVTVSS VL: DIVMTQSPDSLAVSLGERATISCKSSQSLLNSGNQKNYLTWYQQKPGQAPKLLIYWASTRESGVPDRFSGSGSGTDFTLTISSLQAEDVAVYYCQNDYSYPLTFGGGTKVEIKR | 83000 |
| QP024025 (antibody, human IgG1, V domains shown, also called IMAB362; 175D10(IMAB362)) VH: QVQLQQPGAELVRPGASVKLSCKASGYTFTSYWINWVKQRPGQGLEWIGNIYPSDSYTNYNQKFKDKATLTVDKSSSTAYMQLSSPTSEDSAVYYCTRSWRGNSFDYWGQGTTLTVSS VL: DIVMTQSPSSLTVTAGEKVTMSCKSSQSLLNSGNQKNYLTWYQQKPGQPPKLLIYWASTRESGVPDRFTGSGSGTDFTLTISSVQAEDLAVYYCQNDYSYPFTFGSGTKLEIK | 105000 |
